system: ATP; experiment: switch fluorescence ratio, 500 uM ATP over buffer (Cy3 cluster intensity, sum of 5 cycles each) (fold (ratio)); higher = stronger signal-on switching upon ATP binding; sequences stand for … in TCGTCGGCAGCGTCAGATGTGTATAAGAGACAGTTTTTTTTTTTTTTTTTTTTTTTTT…TC; conditions: aptamer strand: ATP DNA aptamer (quencher-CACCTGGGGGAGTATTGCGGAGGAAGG + anchor), 100 nM annealed; ATP concentration: 500 uM;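 further: ATP exposure 15 min at 22 °C before imaging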

sequence_record: ACAATGTCGG
switch fluorescence ratio: 0.998
--
sequence_record: TAATCCTCGT
switch fluorescence ratio: 1
--
sequence_record: AAAGATTTTT
switch fluorescence ratio: 0.985
--
sequence_record: TTTAATAAGG
switch fluorescence ratio: 0.996
--
sequence_record: AACGGTTGAT
switch fluorescence ratio: 0.974
--
sequence_record: CGAGGAAATG
switch fluorescence ratio: 1.06
--
sequence_record: GGATAAGAAT
switch fluorescence ratio: 1.02
--
sequence_record: CCATCGGACA
switch fluorescence ratio: 1.02
--
sequence_record: ATAGGAACGT
switch fluorescence ratio: 1.08
--
sequence_record: TCTCGGTGAG
switch fluorescence ratio: 0.99
--
sequence_record: AAAGAAAGGG
switch fluorescence ratio: 1
--
sequence_record: ACTGGGGTTA
switch fluorescence ratio: 0.979
--
sequence_record: CGTTTCGCCC
switch fluorescence ratio: 1.04
--
sequence_record: AGACGAAAAG
switch fluorescence ratio: 1.03
--
sequence_record: ATAGATGAGG
switch fluorescence ratio: 1.01
--
sequence_record: ACCCGTTGTT
switch fluorescence ratio: 1.01
--
sequence_record: CCTAGGGTGG
switch fluorescence ratio: 1.03
--
sequence_record: TGGGCGGTA
switch fluorescence ratio: 0.963
--
sequence_record: TAGTGTATTC
switch fluorescence ratio: 0.989
--
sequence_record: GTGTGAGTGT
switch fluorescence ratio: 0.973
--
sequence_record: GACCACTATC
switch fluorescence ratio: 1.1
--
sequence_record: TATATTTTGC
switch fluorescence ratio: 0.994
--
sequence_record: GGGGACGTAC
switch fluorescence ratio: 1.47
--
sequence_record: TGACGGTGTG
switch fluorescence ratio: 0.973
--
sequence_record: CCCTGAGGGA
switch fluorescence ratio: 1.18
--
sequence_record: CATCAGGCGG
switch fluorescence ratio: 1.02
--
sequence_record: GCGAAAAATA
switch fluorescence ratio: 1.02
--
sequence_record: ATTTGCGATT
switch fluorescence ratio: 1.03
--
sequence_record: CCGGCGGGG
switch fluorescence ratio: 1.04
--
sequence_record: GGGCGTCGGT
switch fluorescence ratio: 0.984
--
sequence_record: AAAGGTTTTG
switch fluorescence ratio: 1
--
sequence_record: AAAATCGGGA
switch fluorescence ratio: 1
--
sequence_record: CGGGTCTAGC
switch fluorescence ratio: 1.01
--
sequence_record: CAATTTAATA
switch fluorescence ratio: 1.01
--
sequence_record: AAAGGATGTT
switch fluorescence ratio: 0.995
--
sequence_record: TGCTGGGGCT
switch fluorescence ratio: 0.985
--
sequence_record: CTCGTCAGGG
switch fluorescence ratio: 0.995
--
sequence_record: TCAGGGGGCC
switch fluorescence ratio: 1.02
--
sequence_record: CGACCCTGGA
switch fluorescence ratio: 1.1
--
sequence_record: GGCTTCTGCT
switch fluorescence ratio: 0.959
--
sequence_record: TGATATATGG
switch fluorescence ratio: 0.987
--
sequence_record: GGCTTTGCCC
switch fluorescence ratio: 0.967
--
sequence_record: GTTATAGGGG
switch fluorescence ratio: 0.99
--
sequence_record: ATTGTGGATA
switch fluorescence ratio: 0.95
--
sequence_record: GGGGTAAATC
switch fluorescence ratio: 1.01
--
sequence_record: GTTGCATGGG
switch fluorescence ratio: 0.963
--
sequence_record: TTAAAAAAAG
switch fluorescence ratio: 1.01
--
sequence_record: CGTACGCCGG
switch fluorescence ratio: 0.993
--
sequence_record: TTGGACGGGA
switch fluorescence ratio: 1.29
--
sequence_record: AATTATTGGT
switch fluorescence ratio: 1.01
--
sequence_record: GGGTACGGTA
switch fluorescence ratio: 1.05
--
sequence_record: GCGGTGAGAT
switch fluorescence ratio: 0.989
--
sequence_record: GGGGATTTGG
switch fluorescence ratio: 0.992
--
sequence_record: TTGGTTGCAA
switch fluorescence ratio: 0.983
--
sequence_record: TAACGTTTTG
switch fluorescence ratio: 0.989
--
sequence_record: ATATGAGGCG
switch fluorescence ratio: 1.05
--
sequence_record: ACTAAAGGCT
switch fluorescence ratio: 1.01
--
sequence_record: CGACTAAAAT
switch fluorescence ratio: 1.01
--
sequence_record: CCTTCTGCCG
switch fluorescence ratio: 1.2
--
sequence_record: GGTGTAGGGA
switch fluorescence ratio: 0.992
--
sequence_record: TGGACCGGGC
switch fluorescence ratio: 1
--
sequence_record: AAACGAAAAA
switch fluorescence ratio: 1.04
--
sequence_record: GCTAGAAGTA
switch fluorescence ratio: 1.02
--
sequence_record: TAATGACTGT
switch fluorescence ratio: 1.02
--
sequence_record: GAAAGTTCGA
switch fluorescence ratio: 0.987
--
sequence_record: GATATTGTCA
switch fluorescence ratio: 1.04
--
sequence_record: CGCTTGAGA
switch fluorescence ratio: 1.04
--
sequence_record: AGTATTGCAG
switch fluorescence ratio: 0.932
--
sequence_record: ACTTCTTTGT
switch fluorescence ratio: 1.1
--
sequence_record: AAATGGCCAC
switch fluorescence ratio: 1.01
--
sequence_record: TAAGTAGATT
switch fluorescence ratio: 0.995
--
sequence_record: TAGCATGGGG
switch fluorescence ratio: 0.991
--
sequence_record: CACGGGGGAT
switch fluorescence ratio: 1.03
--
sequence_record: TTATACATT
switch fluorescence ratio: 1.02
--
sequence_record: CGTATCGTGA
switch fluorescence ratio: 1.01
--
sequence_record: CACATTATGA
switch fluorescence ratio: 1.04
--
sequence_record: AAATGTTTGC
switch fluorescence ratio: 1.01
--
sequence_record: GATGCTGTGC
switch fluorescence ratio: 1.03
--
sequence_record: AGATTAATTT
switch fluorescence ratio: 0.986
--
sequence_record: CGGCTAAGGG
switch fluorescence ratio: 0.981
--
sequence_record: GAGGGCGGCA
switch fluorescence ratio: 1.02

---

system: ATP; assay: switch fluorescence ratio, 500 uM ATP over buffer (Cy3 cluster intensity, sum of 5 cycles each) (fold (ratio)); higher = stronger signal-on switching upon ATP binding; sequences stand for … in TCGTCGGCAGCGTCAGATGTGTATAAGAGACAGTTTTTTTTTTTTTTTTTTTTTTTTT…TC; conditions: aptamer strand: ATP DNA aptamer (quencher-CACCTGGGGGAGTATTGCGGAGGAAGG + anchor), 100 nM annealed; ATP concentration: 500 uM;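 further: ATP exposure 15 min at 22 °C before imaging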

sequence_record: CGAGAACTGG
switch fluorescence ratio: 1.09
--
sequence_record: TGTTTAAGGG
switch fluorescence ratio: 1
--
sequence_record: CCTTCTGGGG
switch fluorescence ratio: 1.12
--
sequence_record: TGTTTTAATT
switch fluorescence ratio: 0.99
--
sequence_record: GGTGCGCATG
switch fluorescence ratio: 0.994
--
sequence_record: TCTTTTTTGC
switch fluorescence ratio: 0.986
--
sequence_record: TTTGAGAATC
switch fluorescence ratio: 0.977
--
sequence_record: TCATGGTCTG
switch fluorescence ratio: 1
--
sequence_record: TTCCCAGTGT
switch fluorescence ratio: 1.87
--
sequence_record: TTCCATCGCC
switch fluorescence ratio: 1.53
--
sequence_record: CGATATCGAG
switch fluorescence ratio: 0.98
--
sequence_record: AGAGTTGGTC
switch fluorescence ratio: 1
--
sequence_record: ATGAATGAAC
switch fluorescence ratio: 1.03
--
sequence_record: ACCGACGGGA
switch fluorescence ratio: 2.72
--
sequence_record: ATATACTAGA
switch fluorescence ratio: 1.03
--
sequence_record: TTTTCACAAT
switch fluorescence ratio: 1.17
--
sequence_record: AACGGGGATA
switch fluorescence ratio: 1.05
--
sequence_record: ATCGTAATGG
switch fluorescence ratio: 1.04
--
sequence_record: CCGAGGTCGT
switch fluorescence ratio: 1.17
--
sequence_record: GGCTAGTGAC
switch fluorescence ratio: 1
--
sequence_record: AATGCTTCTC
switch fluorescence ratio: 1.03
--
sequence_record: TTTTTGTTCT
switch fluorescence ratio: 0.996
--
sequence_record: GAAGTAGCAG
switch fluorescence ratio: 0.984
--
sequence_record: TGGCTGGGTT
switch fluorescence ratio: 1
--
sequence_record: TGGTAGATT
switch fluorescence ratio: 1.01
--
sequence_record: TTGGGGGAAG
switch fluorescence ratio: 0.981
--
sequence_record: ATGGGGACCT
switch fluorescence ratio: 1.17
--
sequence_record: TCATACCATA
switch fluorescence ratio: 1.09
--
sequence_record: GCCGTTTGTG
switch fluorescence ratio: 1.01
--
sequence_record: CCGGGTTTAC
switch fluorescence ratio: 1.62
--
sequence_record: TACGTTATGC
switch fluorescence ratio: 1.27
--
sequence_record: TCCGTGTGTG
switch fluorescence ratio: 0.989
--
sequence_record: TATAAGTGGT
switch fluorescence ratio: 0.992
--
sequence_record: AAGGGGCGCC
switch fluorescence ratio: 0.999
--
sequence_record: TATGGTTACG
switch fluorescence ratio: 1
--
sequence_record: GCCCTATGTG
switch fluorescence ratio: 1.25
--
sequence_record: GTAGTAGGGT
switch fluorescence ratio: 1.01
--
sequence_record: TGGGGGACTG
switch fluorescence ratio: 1.05
--
sequence_record: TTTTAAAAAG
switch fluorescence ratio: 1
--
sequence_record: ATGTTAGGAA
switch fluorescence ratio: 1
--
sequence_record: TTTGTGAGT
switch fluorescence ratio: 0.979
--
sequence_record: GAGTTCGCGG
switch fluorescence ratio: 1.03
--
sequence_record: ATGTATGGGT
switch fluorescence ratio: 0.992
--
sequence_record: TTTTTATAGG
switch fluorescence ratio: 1.01
--
sequence_record: GATGTGGTAA
switch fluorescence ratio: 1.01
--
sequence_record: GAAGGGAAAG
switch fluorescence ratio: 1.02
--
sequence_record: TATCAAAGAT
switch fluorescence ratio: 1
--
sequence_record: ATCCTAGGGC
switch fluorescence ratio: 1.01
--
sequence_record: AGGGTTTTGA
switch fluorescence ratio: 0.996
--
sequence_record: AACAGTGATA
switch fluorescence ratio: 1.01
--
sequence_record: GAATTCTGAG
switch fluorescence ratio: 1.02
--
sequence_record: GGGGTTTTTG
switch fluorescence ratio: 0.995
--
sequence_record: TTAATGTCCT
switch fluorescence ratio: 1
--
sequence_record: GGACTATTTG
switch fluorescence ratio: 1
--
sequence_record: GGTGGGGCTT
switch fluorescence ratio: 0.998
--
sequence_record: AAGAAAACGA
switch fluorescence ratio: 0.998
--
sequence_record: TGTTAACGGT
switch fluorescence ratio: 0.991
--
sequence_record: AATTTTTGAT
switch fluorescence ratio: 0.979
--
sequence_record: GGATTAGGGT
switch fluorescence ratio: 0.975
--
sequence_record: TGGGTCCGTG
switch fluorescence ratio: 0.963
--
sequence_record: GGAATTTGGC
switch fluorescence ratio: 1.02
--
sequence_record: AATCCGTTTT
switch fluorescence ratio: 1.04
--
sequence_record: GGTATTGTTG
switch fluorescence ratio: 1
--
sequence_record: ATTCATCGTA
switch fluorescence ratio: 1
--
sequence_record: TTCGGGTGGA
switch fluorescence ratio: 1.02
--
sequence_record: GTTATACGTA
switch fluorescence ratio: 1.03
--
sequence_record: ACGGTTCTTT
switch fluorescence ratio: 1.01
--
sequence_record: AAAATGCGGT
switch fluorescence ratio: 0.996
--
sequence_record: TTGCTGAGCC
switch fluorescence ratio: 0.96
--
sequence_record: GCTCGAGTTG
switch fluorescence ratio: 0.997
--
sequence_record: TCATGGGGTG
switch fluorescence ratio: 1.05
--
sequence_record: ATTTGTCGTA
switch fluorescence ratio: 0.997
--
sequence_record: CCCCTTAGCG
switch fluorescence ratio: 1.09
--
sequence_record: TTTGTATTAC
switch fluorescence ratio: 1.32
--
sequence_record: CTTGGGCATG
switch fluorescence ratio: 0.988
--
sequence_record: ATGGGGTCCA
switch fluorescence ratio: 0.976
